test system: rodent lifetime carcinogenesis bioassay, tumor incidence TD50; assay: carcinogenic potency in animals, long-term in vivo studies, CPDB compilation (AID 1745844); details: rat; strain Sprague-Dawley; females; inhaled; site: liver; lesion: angiosarcoma; dosed 25 weeks; study length 127 weeks
measured-quantity: TD50 (mg/kg/day)
# unit: mg/kg/day | format: bare number

Task item: Query (molecule): C=CCl ; field requested: TD50
Reply: 4460

---

test system: rodent lifetime carcinogenesis bioassay, tumor incidence TD50; assay: carcinogenic potency in animals, long-term in vivo studies, CPDB compilation (AID 1745844); settings: mouse; strain B6AKF1; females; oral dosing; site: lung; lesion: adenoma; dosed 76 weeks; study length 76 weeks
Calls of active or inactive are those of the source. The rule behind the calls is not given here.
measured-quantity: carcinogen call

Task item: Query (compound): [Cu+2].[O-]c1cccc2cccnc12.[O-]c1cccc2cccnc12 ; field requested: carcinogen call
Reply: negative (inactive)

Task item: Then what about the compound CC(C)CCCCCOC(=O)COc1ccc(Cl)cc1Cl ?
Reply: negative (inactive)

Task item: Then what about the compound CCCCCCCCCCCCN=C(N)N ?
Reply: negative (inactive)

---

system: rodent lifetime carcinogenesis bioassay, tumor incidence TD50; experiment: carcinogenic potency in animals, long-term in vivo studies, CPDB compilation (AID 1745844); details: rat; strain Fischer 344; males; by gavage; site: pancreatic islets + thyroid gland; lesion: islet-cell adenoma + follicular-cell adenoma + follicular-cell carcinoma; dosed 103 weeks; study length 104 weeks
measured-quantity: TD50

Task item: Query (compound): O=CCC=O ; field requested: TD50
Reply: 67.7 mg/kg/day

---

test system: rodent lifetime carcinogenesis bioassay, tumor incidence TD50; test: carcinogenic potency in animals, long-term in vivo studies, CPDB compilation (AID 1745844); conditions: mouse; strain Swiss; females; in drinking water; site: stomach; lesion: adenocarcinoma; dosed 78 weeks; study length 151 weeks
measured-quantity: TD50 (mg/kg/day)
# unit: mg/kg/day | format: bare number

Task item: Query (compound): C=COC(C)=O ; field requested: TD50
Reply: 36000

---

test system: rodent lifetime carcinogenesis bioassay, tumor incidence TD50; assay: carcinogenic potency in animals, long-term in vivo studies, CPDB compilation (AID 1745844); details: mouse; strain B6C3F1; females; inhaled; site: mammary gland; lesion: mixed tumor, malignant; dosed 83 weeks; study length 104 weeks
measured-quantity: TD50 (mg/kg/day)
# unit: mg/kg/day | format: bare number

Task item: Query (compound): C=CC=C ; field requested: TD50
Reply: 2710

---

tested on: rodent lifetime carcinogenesis bioassay, tumor incidence TD50; test: carcinogenic potency in animals, long-term in vivo studies, CPDB compilation (AID 1745844); settings: rat; strain Fischer 344; females; in drinking water; site: clitoral gland; lesion: adenoma + adenoma, bilateral + carcinoma + carcinoma, bilateral; dosed 96 weeks; study length 97 weeks
measured-quantity: TD50

Task item: Query (compound): COc1cc(-c2ccc(N=Nc3c(S(=O)(=O)O)cc4cc(S(=O)(=O)O)cc(N)c4c3O)c(OC)c2)ccc1N=Nc1c(S(=O)(=O)O)cc2cc(S(=O)(=O)O)cc(N)c2c1O ; field requested: TD50
Reply: 46.2 mg/kg/day

---

Form field: TD50 (one value per entry).
system: rodent lifetime carcinogenesis bioassay, tumor incidence TD50; test: carcinogenic potency in animals, long-term in vivo studies, CPDB compilation (AID 1745844); settings: mouse; strain B6C3F1; males; in feed; site: liver; lesion: hepatocellular carcinoma; dosed 103 weeks; study length 104 weeks

Task item: Test system rodent lifetime carcinogenesis bioassay, tumor incidence TD50; read-out TD50; what value for Nc1c(Br)cc(Br)c2c1C(=O)c1ccccc1C2=O ?
Reply: 2240 mg/kg/day

More entries:
Task item: Test system rodent lifetime carcinogenesis bioassay, tumor incidence TD50; read-out TD50; what value for CNc1ccc(N(CCO)CCO)cc1[N+](=O)[O-] ?
Reply: 389 mg/kg/day

Task item: Then what about the compound C=CCc1ccc(O)c(OC)c1 ?
Reply: 710 mg/kg/day

Task item: Then what about the compound N=C1C=CC(=C(c2ccc(N)cc2)c2ccc(N)cc2)C=C1 ?
Reply: 127 mg/kg/day

---

tested on: rodent lifetime carcinogenesis bioassay, tumor incidence TD50; test: carcinogenic potency in animals, long-term in vivo studies, CPDB compilation (AID 1745844); conditions: rat; strain Fischer 344; females; in feed; site: thyroid gland; lesion: follicular-cell adenoma; dosed 104 weeks; study length 105 weeks
measured-quantity: TD50 (mg/kg/day)
# unit: mg/kg/day | format: bare number

Task item: Query (compound): OCC(CO)(CBr)CBr ; field requested: TD50
Reply: 2160

---

tested on: rodent lifetime carcinogenesis bioassay, tumor incidence TD50; experiment: carcinogenic potency in animals, long-term in vivo studies, CPDB compilation (AID 1745844); details: mouse; strain B6C3F1; males; in feed; site: liver; lesion: hepatocellular adenoma + hepatocellular carcinoma + neoplastic nodule; dosed 67 weeks; study length 89 weeks
measured-quantity: TD50 (mg/kg/day)
# unit: mg/kg/day | format: bare number

Task item: Query (molecule): CCOP(=S)(OCC)Oc1ccc([N+](=O)[O-])cc1 ; field requested: TD50
Reply: 111

---

system: rodent lifetime carcinogenesis bioassay, tumor incidence TD50; assay: carcinogenic potency in animals, long-term in vivo studies, CPDB compilation (AID 1745844); settings: rat; strain F344/DuCrj; males; in feed; site: liver; lesion: hepatocellular adenoma; dosed 95 weeks; study length 95 weeks
measured-quantity: TD50 (mg/kg/day)
# unit: mg/kg/day | format: bare number

Task item: Query (compound): CCCCOCCOCCOCc1cc2c(cc1CCC)OCO2 ; field requested: TD50
Reply: 1400

---

test system: rodent lifetime carcinogenesis bioassay, tumor incidence TD50; experiment: carcinogenic potency in animals, long-term in vivo studies, CPDB compilation (AID 1745844); details: hamster; strain Syrian Golden; females; by gavage; site: liver; lesion: several types; types named in the paper; dosed 40 weeks; study length 55 weeks
measured-quantity: TD50 (mg/kg/day)
# unit: mg/kg/day | format: bare number

Task item: Query (compound): C=CCN(CC(C)=O)N=O ; field requested: TD50
Reply: 3.78

---

test system: rodent lifetime carcinogenesis bioassay, tumor incidence TD50; test: carcinogenic potency in animals, long-term in vivo studies, CPDB compilation (AID 1745844); conditions: mouse; strain B6C3F1; males; in feed; site: liver; lesion: several types; types named in the paper; dosed 79 weeks; study length 79 weeks
measured-quantity: TD50 (mg/kg/day)
# unit: mg/kg/day | format: bare number

Task item: Query (compound): CC(C)CCCCCCOC(=O)c1ccccc1C(=O)OCCCCCCC(C)C ; field requested: TD50
Reply: 1460

---

system: rodent lifetime carcinogenesis bioassay, tumor incidence TD50; assay: carcinogenic potency in animals, long-term in vivo studies, CPDB compilation (AID 1745844); conditions: rat; strain Sprague-Dawley; females; inhaled; site: liver; lesion: hepatoma; dosed 25 weeks; study length 135 weeks
measured-quantity: TD50

Task item: Query (molecule): C=CCl ; field requested: TD50
Reply: 357 mg/kg/day

---

tested on: rodent lifetime carcinogenesis bioassay, tumor incidence TD50; assay: carcinogenic potency in animals, long-term in vivo studies, CPDB compilation (AID 1745844); conditions: rat; strain Fischer 344; females; in drinking water; site: Zymbal's gland; lesion: carcinoma; dosed 98 weeks; study length 104 weeks
measured-quantity: TD50 (mg/kg/day)
# unit: mg/kg/day | format: bare number

Task item: Query (molecule): Cc1ccc(S(=O)(=O)Oc2ccc(N=Nc3ccc(-c4ccc(N=Nc5c(O)ccc6cc(S(=O)(=O)O)cc(S(=O)(=O)O)c56)c(C)c4)cc3C)cc2)cc1 ; field requested: TD50
Reply: 18

---

tested on: rodent lifetime carcinogenesis bioassay, tumor incidence TD50; test: carcinogenic potency in animals, long-term in vivo studies, CPDB compilation (AID 1745844); conditions: mouse; strain Swiss albino; females; in drinking water; site: blood vessels; lesion: angioma; dosed 111 weeks; study length 111 weeks
measured-quantity: TD50 (mg/kg/day)
# unit: mg/kg/day | format: bare number

Task item: Query (compound): CC(=O)NNc1ccccc1 ; field requested: TD50
Reply: 117

---

test system: rodent lifetime carcinogenesis bioassay, tumor incidence TD50; assay: carcinogenic potency in animals, long-term in vivo studies, CPDB compilation (AID 1745844); conditions: rat; strain Fischer 344; females; in feed; site: nasal cavity + urinary bladder; lesion: olfactory neuroblastoma + neoplasm, NOS + papillary carcinoma + squamous-cell carcinoma + transitional-cell carcinoma; dosed 104 weeks; study length 105 weeks
measured-quantity: TD50 (mg/kg/day)
# unit: mg/kg/day | format: bare number

Task item: Query (molecule): COc1ccc(C)cc1N ; field requested: TD50
Reply: 110

---

tested on: rodent lifetime carcinogenesis bioassay, tumor incidence TD50; experiment: carcinogenic potency in animals, long-term in vivo studies, CPDB compilation (AID 1745844); details: mouse; strain B6C3F1; females; in feed; site: liver; lesion: hepatocellular carcinoma; dosed 79 weeks; study length 79 weeks
measured-quantity: TD50
Reply with a number, then the unit it belongs to.

Task item: Query (compound): CC(C)CCCCCCOC(=O)c1ccccc1C(=O)OCCCCCCC(C)C ; field requested: TD50
Reply: 5240 mg/kg/day

Reference source: PubChem BioAssay AID1745844
